Entries and their melting point values follow.
Counter-ions that a name gives are not always drawn.

Some solved cases for reference:
Brc1ccc2[nH]cc(CCN3CCN(c4ccc5[nH]ccc5c4)CC3)c2c1 (as salt: fumarate) :: 231 to 233 °C
c1ccc(Cn2ccc3c(N4CCN(CCc5c[nH]c6ccccc56)CC4)cccc32)cc1 (as salt: fumarate) :: 188 to 190 °C
Fc1ccc2[nH]cc(CCN3CC=C(c4cccc5[nH]ccc45)CC3)c2c1 (as salt: fumarate) :: 204 to 206 °C
c1ccc2c(CCCCN3CCN(c4cccc5[nH]ccc45)CC3)c[nH]c2c1 (as salt: oxalate) :: 189 to 193 °C
N#Cc1c[nH]c2cccc(N3CCN(CCc4c[nH]c5ccccc45)CC3)c12 (as salt: fumarate) :: > 250 °C

Query: Reported melting point for Fc1ccc2[nH]cc(CCN3CCN(c4cccc5c4ccn5Cc4ccccc4)CC3)c2c1 (as salt: fumarate) : what is it?
Reply: 178 to 180 °C

Query: Reported melting point for Fc1ccc2occ(CCCN3CC=C(c4cccc5[nH]ccc45)CC3)c2c1 (as salt: fumarate) : what is it?
Reply: 183 to 185 °C
